biological target: A*0201 class I MHC molecules in cells infected with the PR8 strain of influenza A virus (Homo sapiens, UniProt P04439, D140Y/D185E/D98H/E176V/E277Q/G131W/G231S/I119V/I121R/I166T/I218V/L300P/L318F/N151K/N90K/P208A/P217A/Q86G/Q94H/R138H/R169H/T345S); format: cell-based
reported_metric: Fold Increase

sequence_content | measured
LMTTVHAITAT | Unique
KLMELHGEGSS | Unique
FIQTQQLHAA | Unique
KMWDPHNDPNA | Unique
TIAQLHAV | Unique
GLMTTVHAITATQ | Unique
GVLDNIQAV | Unique
VVQDGIVKA | Unique
ILDKKVEKV | Unique

###

biological target: B*0702 class I MHC molecules in cells infected with the PR8 strain of influenza A virus (Homo sapiens, UniProt P01889); format: cell-based
So basically: Fold Increase at 2 or higher? That is Yes. Lower than 2? That is No.

substance | class_name
APKRPPSAF | No
NPASKVIAL | No
APRGTGIVSA | Yes
AARPATSTL | Yes
RPSGKGIVEF | Yes
TQFVRFDSD | No
SPVPSRPL | Yes

###

The entries below are paired with their reported Fold Increase.
molecular target: B*0702 class I MHC molecules in cells infected with the PR8 strain of influenza A virus (Homo sapiens); type: cell-based

sequence_content | Fold Increase
ITAPPSRVL | 1.98
RVEPLRNEL | 1.95
HLNEKRRF | 2.02

Each recorded value in this set is attributed to patent US20090062512A1.
